// Ratio Ki lookup, one value per entry
# Assay text: Selectivity ratio of Ki for inhibition of recombinant human carbonic anhydrase 2 to Ki for inhibition of recombinant Schistosoma manson carbonic anhydrase
# Assay type: toxicity

- Compound: "NS(=O)(=O)c1ccc(NC(=[Se])Nc2ccc(F)cc2)cc1"
  Ratio Ki: 0.9
- Compound: "NS(=O)(=O)c1ccc(CCNC(=[Se])Nc2ccccc2Cl)cc1"
  Ratio Ki: 0.6
- Compound: "NS(=O)(=O)c1cccc(NC(=[Se])Nc2ccccc2)c1"
  Ratio Ki: 0.8
- Compound: "NS(=O)(=O)c1ccc(NC(=[Se])Nc2cccc(C(F)(F)F)c2)cc1"
  Ratio Ki: 4.1
- Compound: "CC(=O)Nc1nnc(S(N)(=O)=O)s1 [ACETAZOLAMIDE]"
  Ratio Ki: 0.3
- Compound: "NS(=O)(=O)c1ccc(CCNC(=[Se])Nc2ccccc2F)cc1"
  Ratio Ki: 1
- Compound: "NS(=O)(=O)c1ccc(NC(=[Se])Nc2ccccc2Cl)cc1"
  Ratio Ki: 0.6
- Compound: "NS(=O)(=O)c1ccc(CCNC(=[Se])Nc2ccc3ccccc3c2)cc1"
  Ratio Ki: 1.1
